Record form. Attribute: Emax at 30 µM. Fill in for each entry.
- assay_system: human mAChR M4 (Homo sapiens, UniProt P08173)
- Construct: expressed in transfected cells; host or cells: CHO-K1 (American Type Culture Collection), stably expressing hM4 and Gqi5
- Sequence (P08173 1-479): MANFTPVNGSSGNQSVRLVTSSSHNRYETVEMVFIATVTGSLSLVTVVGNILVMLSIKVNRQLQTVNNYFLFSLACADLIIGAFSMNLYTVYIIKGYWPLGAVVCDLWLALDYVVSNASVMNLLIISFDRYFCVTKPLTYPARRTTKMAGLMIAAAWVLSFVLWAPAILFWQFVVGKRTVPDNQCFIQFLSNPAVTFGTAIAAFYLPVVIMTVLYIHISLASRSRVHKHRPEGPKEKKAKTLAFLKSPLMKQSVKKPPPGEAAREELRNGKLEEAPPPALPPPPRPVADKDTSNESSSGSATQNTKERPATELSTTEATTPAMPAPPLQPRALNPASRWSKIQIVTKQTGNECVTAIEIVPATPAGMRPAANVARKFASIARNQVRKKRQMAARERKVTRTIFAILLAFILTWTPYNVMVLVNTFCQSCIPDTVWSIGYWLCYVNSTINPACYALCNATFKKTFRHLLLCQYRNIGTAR
- assay_explanation: mAChR M4 cell-based functional assay: calcium mobilization (Fluo-4, FDSS), potentiation of EC20 acetylcholine response in hM4-Gqi5 CHO-K1 cells
- run_conditions: CHO-K1, % ACh maximum at 30 μM; human M4
Give a bare numeral; the unit % is implied.

Per the records, this molecule ( Cc1cc2nccc(=O)n2nc1N1CCc2ncc(NC(=O)c3ncco3)cc2C1 ) has Emax at 30 µM equal to 44

Per the records, this molecule ( Cc1ccc(-c2cnc3c(c2)CN(c2nn4c(=O)cc(C(F)F)nc4c(C)c2C)CC3)c(C)c1 ) has Emax at 30 µM equal to 69

Per the records, this molecule ( Cc1c(N2CCc3ncc(N4CCCn5nccc54)cc3C2)nn2c(=O)ccnc2c1C ) has Emax at 30 µM equal to 103

Per the records, this molecule ( Cc1cc(=O)n2nc(N3CCc4ncc(-c5ccc(C6CC6)nc5)cc4C3)c(C)c(C)c2n1 ) has Emax at 30 µM equal to 80

Per the records, this molecule ( Cc1c(N2CCc3ncc(-c4ccc(F)cc4F)cc3C2)nn2c(=O)ccnc2c1C ) has Emax at 30 µM equal to 80

Per the records, this molecule ( COCc1cc(=O)n2nc(N3CCc4ncc(-c5cc(F)ccc5F)cc4C3)c(C)cc2n1 ) has Emax at 30 µM equal to 66

Per the records, this molecule ( COc1cccc(C2CN(c3cnc4c(c3)CN(c3nn5c(=O)ccnc5cc3C)CC4)CCO2)c1 (centres unmarked) ) has Emax at 30 µM equal to 64

Per the records, this molecule ( Cc1ccc(-c2cnc3c(c2)CN(c2nn4c(=O)cc(C)nc4cc2C)CC3)cc1 ) has Emax at 30 µM equal to 88

The measurements presented in this section are drawn from patent US20250101041A1.
